Quick list: IC50 per entry.
molecular target: HIV-integrase (Human immunodeficiency virus type 1 group M subtype B); construct: Recombinant integrase (0.26 ng) was incubated with the beads; assay: in-vitro activity against HIV-integrase (HIV Integrase Inhibition, SPA bead assay); assay type: biochemical; details: Table 1; recombinant integrase, activity class

>  <MOLECULE>
O=C(NCc1cc(F)ccc1-n1cncn1)c1nc2n(c(=O)c1O)CCCC21CCC1 [Example 77]

>  <EXPERIMENTAL_TARGET>
HIV-integrase (Human immunodeficiency virus type 1 group M subtype B)

>  <MEASURED>
1 to 10 nM

$$$$

Problem: Requested read-out: IC50. Entry: CC(NC(=O)c1nc2n(c(=O)c1O)CCCC21CCC1)c1ccc(F)cc1 (centres unmarked) [Example 74]
Solution: 10 to 100 nM

Problem: Requested read-out: IC50. Entry: O=C(NCc1ccc(F)cc1-n1cncn1)c1nc2n(c(=O)c1O)CCC21CCCC1 [Example 87]
Solution: 1 to 10 nM

Problem: Requested read-out: IC50. Entry: O=C(NCc1cc(F)ccc1-n1cncn1)c1nc2n(c(=O)c1O)CCCC21CCCC1 [Example 5]
Solution: 1 to 10 nM

Problem: Requested read-out: IC50. Entry: Cc1ncn(-c2cc(F)ccc2CNC(=O)c2nc3n(c(=O)c2O)CCOC32CCOCC2)n1 [Example 50]
Solution: 1 to 10 nM

Problem: Requested read-out: IC50. Entry: O=C(NCc1ccccc1N1CCCCS1(=O)=O)c1nc2n(c(=O)c1O)CCOC21CCC1 [Example 56]
Solution: 10 to 100 nM

Problem: Requested read-out: IC50. Entry: CSc1cc(F)ccc1CNC(=O)c1nc2n(c(=O)c1O)CCOC21CCOC1 (centres unmarked) [Example 39]
Solution: 1 to 10 nM

Problem: Requested read-out: IC50. Entry: O=C(NCc1ccc(F)cc1N1CCCCS1(=O)=O)c1nc2n(c(=O)c1O)CCCC21CCCC1 [Example 9]
Solution: 1 to 10 nM

Problem: Requested read-out: IC50. Entry: CN(C)S(=O)(=O)c1cc(F)ccc1CNC(=O)c1nc2n(c(=O)c1O)CCCOC21CCC1 [Example 61]
Solution: 10 to 100 nM

Problem: Requested read-out: IC50. Entry: COc1ccc(CNC(=O)c2nc3n(c(=O)c2O)CCOC32CCOCC2)c(OC)c1 [Example 46]
Solution: 10 to 100 nM

Problem: Requested read-out: IC50. Entry: CS(=O)(=O)c1cc(F)ccc1CNC(=O)c1nc2n(c(=O)c1O)CCCC21CCCC1 [Example 11]
Solution: 1 to 10 nM

Problem: Requested read-out: IC50. Entry: O=C(NCc1ccccc1F)c1nc2n(c(=O)c1O)CCOC21CCCC1 [Example 24]
Solution: 10 to 100 nM

Problem: Requested read-out: IC50. Entry: CN(C)S(=O)(=O)c1cc(F)ccc1CNC(=O)c1nc2n(c(=O)c1O)CCCC21CCC1 [Example 82]
Solution: 1 to 10 nM

Problem: Requested read-out: IC50. Entry: O=C(NCc1ccc(F)cc1N1CCCCS1(=O)=O)c1nc2n(c(=O)c1O)CCCC21CCC1 [Example 79]
Solution: 1 to 10 nM

====

Quick list: IC50 per entry.
biological target: HIV-integrase (Human immunodeficiency virus type 1 group M subtype B); construct: Recombinant integrase (0.26 ng) was incubated with the beads; test: in-vitro activity against HIV-integrase (HIV Integrase Inhibition, SPA bead assay); type: biochemical; details: Table 1a; recombinant integrase, activity class

// known answers, use as guide
>  <COMPOUND>
CN1CCn2c(nc(C(=O)NCc3ccc(F)cc3)c(O)c2=O)C12CCCCC2 [Example 95]

>  <PARAMETER>
IC50

>  <MEASURED>
1 to 10 nM

$$$$
>  <COMPOUND>
CNC(=O)c1cc(F)ccc1CNC(=O)c1nc2n(c(=O)c1O)CCCOC21CCOCC1 [Example 115]

>  <PARAMETER>
IC50

>  <MEASURED>
1 to 10 nM

$$$$
>  <COMPOUND>
O=C(NCc1ccc(F)cc1)c1nc2n(c(=O)c1O)CCCOC21CCOCC1 [Example 114]

>  <PARAMETER>
IC50

>  <MEASURED>
1 to 10 nM

$$$$
>  <COMPOUND>
O=C(NCc1ccc(F)cc1-n1ccnn1)c1nc2n(c(=O)c1O)CCOC21CCCC1 [Example 113]

>  <PARAMETER>
IC50

>  <MEASURED>
1 to 10 nM

$$$$
>  <COMPOUND>
O=C(NCc1ccc(F)cc1)c1nc2n(c(=O)c1O)CCNC21CCC1 [Example 132]

>  <PARAMETER>
IC50

>  <MEASURED>
1 to 10 nM

$$$$
>  <COMPOUND>
COP(=O)(OC)c1cc(F)ccc1CNC(=O)c1nc2n(c(=O)c1O)CCCOC21CCOCC1 [Example 117]

>  <PARAMETER>
IC50

>  <MEASURED>
10 to 100 nM

$$$$

Problem: Requested read-out: IC50. Entry: Cc1nc(C)n(-c2cc(F)ccc2CNC(=O)c2nc3n(c(=O)c2O)CCCOC32CCC2)n1 [Example 128]
Solution: 10 to 100 nM

Problem: Requested read-out: IC50. Entry: Cc1ncn(-c2cc(F)ccc2CNC(=O)c2nc3n(c(=O)c2O)CCOC32CCC2)n1 [Example 124]
Solution: 1 to 10 nM

Problem: Requested read-out: IC50. Entry: O=C(NCc1ccc(F)cc1-n1cncn1)c1nc2n(c(=O)c1O)CCOC21COC1 [Example 110]
Solution: 1 to 10 nM

Problem: Requested read-out: IC50. Entry: CN1CCn2c(nc(C(=O)NCc3ccc(F)cc3-n3cncn3)c(O)c2=O)C12CCC2 [Example 99]
Solution: 1 to 10 nM

Problem: Requested read-out: IC50. Entry: O=C(NCc1ccc(F)cc1)c1nc2n(c(=O)c1O)CCOC21COC1 [Example 109]
Solution: 1 to 10 nM

Problem: Requested read-out: IC50. Entry: Cc1nc(C)n(-c2cc(F)ccc2CNC(=O)c2nc3n(c(=O)c2O)CCOC32CCC2)n1 [Example 127]
Solution: 10 to 100 nM

Problem: Requested read-out: IC50. Entry: CN1CCn2c(nc(C(=O)NCc3ccc(F)cc3-n3cncn3)c(O)c2=O)C12CCCC2 [Example 93]
Solution: 1 to 10 nM

Problem: Requested read-out: IC50. Entry: Cc1ncnn1-c1cc(F)ccc1CNC(=O)c1nc2n(c(=O)c1O)CCN(C)C21CCCC1 [Example 94]
Solution: 10 to 100 nM

====

molecular target: HIV-integrase (Human immunodeficiency virus type 1 group M subtype B, UniProt P04585); construct: Recombinant integrase (0.26 ng) was incubated with the beads; experiment: in-vitro activity against HIV-integrase (HIV Integrase Inhibition, SPA bead assay); format: biochemical; settings: Table 1; recombinant integrase, activity class
Quick list: IC50 per entry.

// known answers, use as guide
>  <COMPOUND>
Cc1cc(CNC(=O)c2nc3n(c(=O)c2O)CCCC32CCC2)ccc1F [Example 72]

>  <IC50>
1 to 10 nM

$$$$
>  <COMPOUND>
Cc1cc(CNC(=O)c2nc3n(c(=O)c2O)CCOC32CCOCC2)ccc1F [Example 45]

>  <IC50>
1 to 10 nM

$$$$
>  <COMPOUND>
O=C(NCc1ccccc1-n1cncn1)c1nc2n(c(=O)c1O)CCCC21CCC1 [Example 80]

>  <IC50>
1 to 10 nM

$$$$

Problem: Requested read-out: IC50. Entry: O=C(NCc1ccc(F)cc1)c1nc2n(c(=O)c1O)CCOC21CCOC1 (stereo not drawn) [Example 36]
Solution: 1 to 10 nM

Problem: Requested read-out: IC50. Entry: Cc1ccc(CNC(=O)c2nc3n(c(=O)c2O)CCOC32CCCC2)cc1C [Example 22]
Solution: 10 to 100 nM

Problem: Requested read-out: IC50. Entry: O=C(NCc1ccccc1-n1cncn1)c1nc2n(c(=O)c1O)CCOC21CCCC1 [Example 33]
Solution: 1 to 10 nM

Problem: Requested read-out: IC50. Entry: O=C(NCc1ccc(Cl)c(Cl)c1)c1nc2n(c(=O)c1O)CCOC21CCCC1 [Example 21]
Solution: 1 to 10 nM

Problem: Requested read-out: IC50. Entry: COc1ccc(CNC(=O)c2nc3n(c(=O)c2O)CCCC32CCC2)c(OC)c1 [Example 71]
Solution: 10 to 100 nM

Problem: Requested read-out: IC50. Entry: CS(=O)(=O)c1cc(F)ccc1CNC(=O)c1nc2n(c(=O)c1O)CCOC21CCC1 [Example 53]
Solution: 1 to 10 nM
